Experiment: folding enthalpy; higher = less favourable; fluorescence melt of hairpins on a sequencing array, two-state fit
Details: sodium 0.088 M
Lab note: compare folding enthalpy against -20 kcal/mol. Equal or greater, write 1.0. Smaller, write 0.0.

>>> class_assignment("GGACGCGAAAGCGTTTCC ((((((....)))..)))")
1.0
>>> class_assignment("GTGTGCGGAAACGCGTAC ((..(((....)))..))")
1.0
>>> class_assignment("GATCACCATGTGATC ((((((...))))))")
0.0
>>> class_assignment("GTCCGATCGAAAGATGAC (((..(((....))))))")
1.0
>>> class_assignment("GCCGTGCGAAAGCCCTGC ((.(.((....)).).))")
1.0
>>> class_assignment("GCGAGGATCGC ((((...))))")
0.0
>>> class_assignment("CGGCTTCGGAAACGACCG (((..(((....))))))")
1.0
>>> class_assignment("GAGTCCGAAAGGATTCTC ((((((....)))..)))")
0.0
>>> class_assignment("GGGGACCCGAAAGGGCCC (((..(((....))))))")
1.0
>>> class_assignment("GATCCAACGCTGGATC ((((((....))))))")
0.0
>>> class_assignment("GCCGGAGGAAACCCCGAC (.(((.(....).))).)")
1.0

----------
Test: folding enthalpy; higher = less favourable; fluorescence melt of hairpins on a sequencing array, two-state fit
Conditions: sodium 0.088 M
MEASUREMENT LABEL: folding enthalpy (kcal/mol)

>>> observed_result("GTCGACGAAAGTCCGGAC ((((((....)))..)))")
-18.1
>>> observed_result("GCACTGCGAAAGCAAAGC ((..(((....)))..))")
-13.2
>>> observed_result("GATCGTGGTCACGATC ((((((....))))))")
-41.9
>>> observed_result("GTAGTCGAAAGACTTTAC ((((((....)))..)))")
-13.7
>>> observed_result("GAAGGGGGAAACCTCTTC ((((.((....)).))))")
-27.7
>>> observed_result("GAGGATGGAAACACCCTC ((((.((....)).))))")
-32.6

----------
Assay: folding enthalpy; higher = less favourable; fluorescence melt of hairpins on a sequencing array, two-state fit
Conditions: sodium 0.088 M
Output schema: class label derived from folding enthalpy. Mapping: low class (below -30 kcal/mol), middle class (-30 kcal/mol to below -20 kcal/mol), high class (-20 kcal/mol or more)

>>> class_assignment("GATGACGAAAGTCGAATC ((((((....)))..)))")
"high class"
>>> class_assignment("GCGTAAAACGC ((((...))))")
"middle class"
>>> class_assignment("GATCTGATTCCAGATC ((((((....))))))")
"low class"
>>> class_assignment("CACTAGAAATAGTG (((((....)))))")
"high class"
>>> class_assignment("GATCTTTATAAAGATC ((((((....))))))")
"low class"
>>> class_assignment("GATCGAAGGTCGATC ((((((...))))))")
"middle class"
>>> class_assignment("GGGTTTTCGAAAGAACCC (((..(((....))))))")
"low class"
>>> class_assignment("GCTTTTACGAAAGTAAGC (((..(((....))))))")
"high class"
>>> class_assignment("GAGAGCCGAAAGGCGCTC (((.(((....))).)))")
"middle class"
>>> class_assignment("GGGCAAGCGAAAGCTCCC (((..(((....))))))")
"high class"
>>> class_assignment("GGATACGAAAGTAATCC ((((((....))).)))")
"middle class"
>>> class_assignment("GATCCCGCTGGGGATC ((((((....))))))")
"low class"

----------
Assay: melting temperature; fluorescence melt of hairpins on a sequencing array, two-state fit, raised by 9.35 °C to match UV melts
Settings: sodium 0.088 M
Mark true only when Tm stays strictly below 50 °C. Values equal to the cut-off are false.

>>> class_assignment("GGAAACGAAAGTTGTTCC ((((((....)))..)))")
"true"
>>> class_assignment("GCGGTAATCCGC ((((....))))")
"false"
>>> class_assignment("GGTGGACGAAAGTCACC (((.(((....))))))")
"false"
>>> class_assignment("GAGGCACGAAAGTGCTC (((.(((....))))))")
"true"
>>> class_assignment("GATCCCATCAGGGATC ((((((....))))))")
"false"
>>> class_assignment("CGGCGCGGAAACGCACCG (((.(((....))).)))")
"false"
>>> class_assignment("GCAAGCGGAAACGCTCAC (..((((....))))..)")
"true"
>>> class_assignment("GATCGATTATTCGATC ((((((....))))))")
"false"
>>> class_assignment("GCACCGCGAAAGCAGGGC ((.(.((....)).).))")
"false"
>>> class_assignment("GCAAAAGGAAACTTTCGC ((.((((....)))).))")
"true"
>>> class_assignment("GTGTCAGGAAACTGATGC (..((((....))))..)")
"true"
>>> class_assignment("GGGATGGGAAACCGTCTC (.((.((....)).)).)")
"true"
>>> class_assignment("GCTCCGCGAAAGCCGTGC ((.(.((....)).).))")
"true"
>>> class_assignment("GACATGGGAAACTGTGTC ((((..(....)..))))")
"true"
>>> class_assignment("CAGTCGAAAGACTG (((((....)))))")
"false"
>>> class_assignment("GACGTGGAAACACGTC ((((((....))))))")
"false"
>>> class_assignment("GATCCTTCATAGGATC ((((((....))))))")
"false"
>>> class_assignment("GATGGCCGAAAGGCGATC (((.(((....))).)))")
"false"
>>> class_assignment("GATCACCAGGGTGATC ((((((....))))))")
"false"
>>> class_assignment("GACCACGAAAGTGAGTC ((((((....))).)))")
"false"
>>> class_assignment("GCCCAGCGAAAGCCGAGC ((.(.((....)).).))")
"true"
>>> class_assignment("GTGGAGGAAACTCCAC ((((((....))))))")
"false"
>>> class_assignment("GATCCAGCATTGGATC ((((((....))))))")
"false"
>>> class_assignment("CGTTACGGAAACGTCACG (((.(((....))).)))")
"true"
>>> class_assignment("GCTAGGGGAAACTCTAGC (((((.(....).)))))")
"true"
>>> class_assignment("GGGTGTCGAAAGACTCCC (((.(((....))).)))")
"false"
>>> class_assignment("GGTGCCGAAAGGCCTACC ((((((....)))..)))")
"true"
>>> class_assignment("GCACTCGAAAGAGTATGC ((((((....)))..)))")
"true"
>>> class_assignment("GCGGTACTCCGC ((((....))))")
"false"
>>> class_assignment("GGAGCGCCGAAAGGCTCC (((..(((....))))))")
"true"
>>> class_assignment("GAATTGGGAAACCAATCC (.(((((....))))).)")
"true"
>>> class_assignment("GCTATGACGAAAGTCAGC (((..(((....))))))")
"true"
>>> class_assignment("GCGAGAGCTCGC ((((....))))")
"false"
>>> class_assignment("GGTGGACGAAAGTCAACC (((.(((....))).)))")
"false"
>>> class_assignment("GCGCATGGAAACACGCAC (.((.((....)).)).)")
"true"
>>> class_assignment("GATCAACTATTTGATC ((((((....))))))")
"true"
>>> class_assignment("GTTCGCCGAAAGGCCAAC (((.(((....))).)))")
"true"
>>> class_assignment("GTTCGGGGAAACTCGGAC ((.((.(....).)).))")
"true"
>>> class_assignment("GATCTAGAACTAGATC ((((((....))))))")
"true"
>>> class_assignment("GTGAGGGGAAACCTTCAC ((((.((....)).))))")
"true"
>>> class_assignment("GCAGGGGCGAAAGCCTGC (((..(((....))))))")
"false"
>>> class_assignment("GGACGTCGAAAGACTTCC (((.(((....))).)))")
"true"
>>> class_assignment("GATCGTATCGACGATC ((((((....))))))")
"false"
>>> class_assignment("GCGATGGGAAACTATCGC (((((.(....).)))))")
"false"
>>> class_assignment("GGATCGGCGAAAGCCTCC (((..(((....))))))")
"true"
>>> class_assignment("GATCCGAGAACGGATC ((((((....))))))")
"false"
>>> class_assignment("GGCAAAGGAAACTTCGCC (((.(((....))).)))")
"true"
